system: HT29 colon; experiment: NCI tumour cell line growth inhibition, 48 h; in the data active = GI50 below about 0.43 µM; inactive = the rest
Outcomes: active, inactive

>>> qualitative_label("c1ccc2nc3c(cc2c1)Sc1cc2ccccc2[n+]2c1N3CC2")
"inactive"
>>> qualitative_label("OCc1cn(Cc2ccc(Cl)cc2)c2ccccc12")
"inactive"
>>> qualitative_label("O=C(O)CN(CCN(CC(=O)O)CC(=O)O)CC(=O)O")
"inactive"
>>> qualitative_label("CCN(Cc1cccnc1)c1ccc(CO)c(Cl)c1")
"inactive"
>>> qualitative_label("CS(=O)(=O)Nc1ccc(Nc2c3ccccc3nc3cc([N+](=O)[O-])ccc23)cc1")
"inactive"
>>> qualitative_label("O=C(Cc1csc2nc(-c3ccc(Br)cc3)cn12)N/N=C/c1ccccc1")
"inactive"
>>> qualitative_label("COC1C(O)CC(OC2CC(OC3CC(O[C@@H]4C(=O)c5c(cc6cc(OC7CC(OC8CC(O)C(O)C(C)O8)C(O)C(C)O7)c(C)c(O)c6c5O)CC4[C@H](OC)C(=O)C(C)=O)OC(C)C3O)OC(C)C2O)OC1C (some centres undefined)")
"active"
>>> qualitative_label("CS(=O)(=O)c1ccc(Oc2cc(F)cc(C#N)c2)c2c1[C@H](O)[C@H](F)[C@H]2F")
"inactive"
>>> qualitative_label("Cc1ccc(/C=C2\\COc3ccc(O)c(O)c3C2=O)cc1")
"inactive"

###

test system: SW-620 colon; assay: NCI tumour cell line growth inhibition, 48 h
Below, each of the compounds is paired with its reported TGI value.
Reported Metric: TGI

>>> observed_value("COc1cc(/C=C2\\CN(S(=O)(=O)c3ccc(C)cc3)C/C(=C\\c3cc(CN4CCOCC4)c(O)c(OC)c3)C2=O)cc(CN2CCOCC2)c1O")
"> 100 µM"
>>> observed_value("CCCCCCSC[C@H](OC(C)=O)[C@@H](OC(C)=O)[C@@H](OC(C)=O)[C@@H](COC(C)=O)OC(C)=O")
"> 100 µM"
>>> observed_value("CN(C)C(=S)OC(Cn1cncn1)c1ccc(Cl)cc1Cl (stereo not given)")
"> 100 µM"
>>> observed_value("COP(=O)(CC(=O)C1OC(C)(C)OC1C(O)COCc1ccccc1)OC (stereo not given)")
"> 100 µM"
>>> observed_value("COC1CC(C)(NC(C)=O)C2OC(c3ccccc3)OCC2O1 (stereo not given)")
"> 100 µM"
>>> observed_value("C[n+]1[se]c2ccccc2c1Cl")
"42.6 µM"
>>> observed_value("C=C(C)c1ccccc1 (tested in a mixture with another compound)")
"> 100 µM"
>>> observed_value("CS(=O)(=O)Nc1ccc(Nc2c3ccccc3nc3cc([N+](=O)[O-])ccc23)cc1")
"6 µM"
>>> observed_value("CN(C)c1ccc(/C=C2\\C[C@H]3[C@@H]4CCc5cc(OCCN6CCCC6)ccc5[C@H]4CC[C@]3(C)[C@H]2O)cc1")
"18.6 µM"
>>> observed_value("COc1ccc(/C=N/Nc2nc(-c3cc4oc(=O)n(C)c4cc3Cl)cs2)cc1OC")
"> 100 µM"

###

Catalogue of compounds with associated TGI
test system: HL-60(TB) leukemia; experiment: NCI tumour cell line growth inhibition, 48 h
Reported Metric: TGI

>>> observed_value("COc1ccc(N2C(=O)/C(=C/c3ccc(N(CCC#N)CCC#N)cc3C)N=C2/C=C\\c2ccccc2)cc1")
"> 100 µM"
>>> observed_value("CN1CCC(SC2Cc3cc(Cl)ccc3Sc3ccccc32)CC1 (centres undefined)")
"19.5 µM"
>>> observed_value("Clc1ccc(OCCSCCCCCCCCCCSCCOc2ccc(Cl)cc2)cc1")
"> 100 µM"
>>> observed_value("COc1ccc(-n2c(N)c(C#N)c(C#N)c2-c2cccc([N+](=O)[O-])c2)cc1")
"> 100 µM"
>>> observed_value("COc1ccc(OC)c(C(=O)c2cccc(C(=O)c3cc(OC)ccc3OC)n2)c1")
"71.9 µM"
>>> observed_value("O=C(CC(C(=O)c1ccc(F)cc1)c1ccsc1)c1cccs1 (centres undefined)")
"> 100 µM"
>>> observed_value("Nc1cc(C(=O)NC2C3CC4CC(C3)CC2C4)[nH]c(=S)n1 (centres undefined)")
"> 100 µM"
>>> observed_value("S=c1ncc2n[nH]nc2[nH]1")
"> 100 µM"
>>> observed_value("NC(=O)c1nnsc1N/N=C/c1ccc([N+](=O)[O-])cc1")
"> 100 µM"
